// provenance: ChEMBL document CHEMBL3244196

# Lookup of reported ED50 keyed by entry
# Organism: Mus musculus
# measurement_notes: Analgesic activity in mouse by Eddy hot-plate method
# Format: functional

>>> print(df.to_string())
                                   compound  value_observed
0  C=CCN1CCC2CC(C1)c1ccccc12 (stereo unspecified)      19.4 mg/kg

# ED50 lookup, item `CN1CC[C@@H]2CC1Cc1ccc(O)cc12`
4.5 mg/kg

Queued: CN1CC[C@]23c4c5ccc(O)c4O[C@H]2[C@@H](O)C=C[C@H]3[C@H]1C5 [MORPHINE]
1.2 mg/kg

Queued: c1ccc2c(c1)C1CCNCC2C1 (stereo unspecified)
4.9 mg/kg
